tested on: EAT; test: Antitumor activity against Mus musculus (mouse) EAT xenografted in Mus musculus (mouse) assessed as decrease in body weight at 100 mg/kg, ip administered day 7 to 11 post tumor implantation measured on day 12 relative to control
The source made the active and inactive calls. The calls are words filed in the database; no cut-off is given here.
observation-type: Activity

{"columns": ["compound", "reported"],
 "data": [
  ["Cc1nc(-c2ccc(NC(=O)CN3C(=O)/C(=C/c4ccc(-c5ccc(Cl)cc5)o4)SC3=S)cc2)no1", "Active"],
  ["O=C(CN1C(=O)/C(=C/c2ccc(-c3ccc(Cl)cc3)o2)SC1=S)Nc1ccon1", "Active"],
  ["O=C(CN1C(=O)/C(=C/c2ccc(-c3ccc(Cl)cc3)o2)SC1=S)N1CCN(c2ccccc2F)CC1", "Active"],
  ["COc1ccc(CCNC(=O)CN2C(=O)/C(=C/c3ccc(-c4ccc(Cl)cc4)o3)SC2=S)cc1", "Active"],
  ["COC(=O)C(Cc1ccc(O)cc1)NC(=O)CN1C(=O)/C(=C/c2ccc(-c3ccc(Cl)cc3)o2)SC1=S (configuration not stated)", "Active"],
  ["CCCCNC(=O)CN1C(=O)/C(=C/c2ccc(-c3ccc(Cl)cc3)o2)SC1=S", "Active"],
  ["COc1ccc(Cn2nc(C3CC3)cc2NC(=O)CN2C(=O)/C(=C/c3ccc(-c4ccc(Cl)cc4)o3)SC2=S)cc1", "Active"]
]}
